System: MS2 coat protein
method: apparent KD of MS2 coat protein; designed switch direction (-1 OFF switch, 1 ON switch): -1; higher = weaker reporter binding
protocol conditions: input ligand: none
apparent KD of MS2 coat protein reference
assay endpoint: apparent KD of MS2 coat protein (nM)

- sequence string: "GGAGGAAGAGAGGAUAUGCACUCAAGGAGAAAAGCAGAAGGUUCAACAUGAGGAUCACCCAUGUAUGAUCCUCA [AK-MS2ROC-r4-exclusion6-3] (Eterna round: R97, puzzle: Exclusion 6)"
  assay endpoint: "apparent KD of MS2 coat protein"
  observed value: 197
- sequence string: "UUUAUUAAUUAAUAUAAUAAGAUCACAUGAGGAUCACCCAUGUAGGAUAUCAGCUCGUGUAGAGCUGAGAAGGACAUAAUUAUA [ExNG3/1-B3] (Eterna round: R96, puzzle: Exclusion NG 3)"
  assay endpoint: "apparent KD of MS2 coat protein"
  observed value: 34.3
- sequence string: "GCUUUUGGGCAAGGAUAUCCUGCGCGGUUCUGGUUCGUGUCUGUCACAUGAGGAUCACCCAUGUGGGAGAAGGUGCCUGUGGUG [Design 71] (Eterna round: R96, puzzle: Exclusion NG 2)"
  assay endpoint: "apparent KD of MS2 coat protein"
  observed value: 23
- sequence string: "UUUCGGCAUGUAGGAUAUGGAUCCGAUUAGGAUUUAGAAGGACAUGAGGAUCACCCAUGUGCAUUUAAUUAGUCAUUACCGUUU [EXclNG1-LROPPY07] (Eterna round: R96, puzzle: Exclusion NG 1)"
  assay endpoint: "apparent KD of MS2 coat protein"
  observed value: 67.1
- sequence string: "UAUUUGCAAGCGAGAUCCCACAUGAGGAUCACCCAUGUUCUUGGAAAGUACAGAAUUACUGUACAAGCUCGUCUUCU [mod-Eli/newD-last] (Eterna round: R97, puzzle: Sensor, turn-off variant 1)"
  assay endpoint: "apparent KD of MS2 coat protein"
  observed value: 20.4
- sequence string: "AGCUGUGGCCGAGGAUAUACACAUGAGGAUCACCCAUGUAGGCGCGGAUACGCGCUAAAAUAAGUGUAGAAGGCGGUCUCAGCA [Eli eng2 - 056] (Eterna round: R96, puzzle: Exclusion NG 2)"
  assay endpoint: "apparent KD of MS2 coat protein"
  observed value: 18.1
- sequence string: "GUCACAUGGACAUAGGAUCACAUGAGGAUCACCCAUGUGACUAACAAGCUUUUUGUUCGUCUUAUGUCUAUGUGAAG [Stov1/16-B3] (Eterna round: R97, puzzle: Sensor, turn-off variant 1)"
  assay endpoint: "apparent KD of MS2 coat protein"
  observed value: 16.9
- sequence string: "ACAAGCUAAAUCAUAUCUUACAUGAGGAUCACCCAUGUUUUUGCAAUUAUGUUUGGCCUCCUUUGUGCUCGUCUUAU [JR_STOV1_Sub051] (Eterna round: R97, puzzle: Sensor, turn-off variant 1)"
  assay endpoint: "apparent KD of MS2 coat protein"
  observed value: 16.7
- sequence string: "AGCUGACGAGGAUAUACAUGAGGAUCACCCAUGUAAGAUCAGCGACGAUAGUCGCAAUGUAGAAGGCGUCAGCU [E3/10-A2] (Eterna round: R97, puzzle: Exclusion 3)"
  assay endpoint: "apparent KD of MS2 coat protein"
  observed value: 30.1

---

Tested on: MS2 coat protein
method: apparent KD of MS2 coat protein; designed switch direction (-1 OFF switch, 1 ON switch): -1; higher = weaker reporter binding
protocol conditions: Eterna round: R95; input ligand: none

- sequence string: "CCGGAAUAGCAGGAUAUAGGAGUCGAUAGACACCUAGAAGGGUUGACAUGAGGAUCACCCAUGUGUCCUACCGG [Fiskers Ex 6 - 82] (puzzle: Exclusion 6)"
  measurement target: "MS2 coat protein"
  unit of measurement: "µM"
  apparent KD of MS2 coat protein: 0.519
- sequence string: "GGUACUAACACGAGAGUGUUAGUACUAUAAGCUUGUGUUACAUGAGGAUCACCCAUGUCCUCAUAGGCUCGUCUUAG [Mat - Sensor v3 - Turn-off var 2 - D84] (puzzle: Sensor v3, turn-off variant 2)"
  measurement target: "MS2 coat protein"
  unit of measurement: "µM"
  apparent KD of MS2 coat protein: 0.0919
- sequence string: "ACGUGAUACCUGUCGGUGGACAUGAGGAUCACCCAUGUAAGCUUUUUGCUCGUCUUAUAACCCGGUGACAGACCUUC [Racequbebe] (puzzle: Sensor v3, turn-off variant 1)"
  measurement target: "MS2 coat protein"
  unit of measurement: "µM"
  apparent KD of MS2 coat protein: 0.142
- sequence string: "CAUACUGAAGUUAGGAUAUUCGAACGUAUACGGAUGGAGAAGGGACAUGAGGAUCACCCAUGUAGAUAGUAAAG [EX-4 Malc #11] (puzzle: Brourd's mod of Exclusion 4)"
  measurement target: "MS2 coat protein"
  unit of measurement: "µM"
  apparent KD of MS2 coat protein: 0.0231
- sequence string: "CACAAGCUUUUUUGAUGCAUUUUAGUUGGUUGCCUUUUUACAUGAGGAUCACCCAUGUUUGUGUAGCUCGAUCUUUU [JR_SV3TOV2_Sub078] (puzzle: Sensor v3, turn-off variant 2)"
  measurement target: "MS2 coat protein"
  unit of measurement: "µM"
  apparent KD of MS2 coat protein: 0.0412
- sequence string: "CAUUACUACAAGCUUGGGAACAUGAGGAUCACCCAUGUUCGUCUUAUUGAUCUAGGUACGCUGACGUACCUAGAUCU [JL-sv1-2.24 Brourd mod] (puzzle: Sensor v3, turn-off variant 1)"
  measurement target: "MS2 coat protein"
  unit of measurement: "µM"
  apparent KD of MS2 coat protein: 0.0133
- sequence string: "ACAAGCGUUUUGCUCGUAAAGUAGGAACGCGAGAGCGGCACAUGAGGAUCACCCAUGUAGAGGCAGUUGGUGGAGAU [JR_SV3TOV2_Sub030] (puzzle: Sensor v3, turn-off variant 2)"
  measurement target: "MS2 coat protein"
  unit of measurement: "µM"
  apparent KD of MS2 coat protein: 0.0253
- sequence string: "GUAAAGUGAGGAUAUGGUAAAGUAAUUAUUUAGUAAUUAAUCCAGAAGGCACAUGAGGAUCACCCAUGUAAAUG [Mat - Exclusion 4 - D96] (puzzle: Exclusion 4)"
  measurement target: "MS2 coat protein"
  unit of measurement: "µM"
  apparent KD of MS2 coat protein: 0.0287
- sequence string: "AGUAGUAGUAUCCGUUCUUACAUGAGGAUCACCCAUGUUUCUUGACGUGCACGCGAUGCUCGUCAGACUACCAGAUG [salish99_TOv1_r3_055] (puzzle: Sensor v3, turn-off variant 1)"
  measurement target: "MS2 coat protein"
  unit of measurement: "µM"
  apparent KD of MS2 coat protein: 0.0915
- sequence string: "GGUUGGCGAGGAUAUACAUGAGGAUCACCCAUGUGAGAGAAAAAAGUGAGGAAGAAAAGUAGAAGGCGUUGACG [salish99_ex3_r3_052] (puzzle: Exclusion 3)"
  measurement target: "MS2 coat protein"
  unit of measurement: "µM"
  apparent KD of MS2 coat protein: 0.0428
- sequence string: "GCUCGUACGGAGGAUAUAGAUUUCGGAAACCGACUAGAAGGCCGAACAUGAGGAUCACCCAUGUGAUUUAUAUC [Gesozarequ] (puzzle: Exclusion 6)"
  measurement target: "MS2 coat protein"
  unit of measurement: "µM"
  apparent KD of MS2 coat protein: 0.0234
- sequence string: "GUAAAGGUAGGAUAUACGAAGAAAAAGGGUAGAAUAAUAACACAUGAGGAUCACCCAUGUAGAAGGACCAAAGG [Mat - Exclusion 2 - Mod of my Tesla design - D8] (puzzle: Exclusion 2)"
  measurement target: "MS2 coat protein"
  unit of measurement: "µM"
  apparent KD of MS2 coat protein: 0.0238
- sequence string: "AAGAGGUCAGGAUAUACGGGAAGAGAGAGAAGUAGAGGGUAACAUGAGGAUCACCCAUGUAGAAGGGACUAAGA [JR_Exclu2_Sub072] (puzzle: Exclusion 2)"
  measurement target: "MS2 coat protein"
  unit of measurement: "µM"
  apparent KD of MS2 coat protein: 0.0334
- sequence string: "GAUUGACAUGAGGAUCACCCAUGUGAGGAUAUCGGCUGGACCGUGUUGGCUUCCGUCUCGAGAAGGCGCAUAGG [Exclusion 1 V43] (puzzle: Exclusion 1)"
  measurement target: "MS2 coat protein"
  unit of measurement: "µM"
  apparent KD of MS2 coat protein: 0.0444
- sequence string: "GGCCCUAAGGUCAGAUUCACAAGCUUUUUGCUCGUUUUAACAUGAGGAUCACCCAUGUCUAGUGGAUUUGAUCCUUU [Sensor v3, turn-off variant 2 (MOD of Indiso v.6)] (puzzle: Sensor v3, turn-off variant 2)"
  measurement target: "MS2 coat protein"
  unit of measurement: "µM"
  apparent KD of MS2 coat protein: 0.0342
- sequence string: "CUCCUCGUGGCGCCUAAACACAUGAGGAUCACCCAUGUACAGGCUUUUUGCCGUCUUAUAAUAAAACCGAGGAUACG [Cezabi] (puzzle: Sensor v3, turn-off variant 1)"
  measurement target: "MS2 coat protein"
  unit of measurement: "µM"
  apparent KD of MS2 coat protein: 0.0212
- sequence string: "GAAAAGGUAGGAUAUACGAAAAAAAAGGGUAGAAAAAAAACACAUGAGGAUCACCCAUGUAGAAGGACCAUAAG [salish99_ex2_r3_091] (puzzle: Exclusion 2)"
  measurement target: "MS2 coat protein"
  unit of measurement: "µM"
  apparent KD of MS2 coat protein: 0.0292
- sequence string: "ACAAGCUUUUUGCUCGGGUACAUGAGGAUCACCCAUGUUUGUGUUUAUUGAGGUUGUGUUGUCGUGCGCUGCAGGUU [JR_SV3TOV1_Sub077] (puzzle: Sensor v3, turn-off variant 1)"
  measurement target: "MS2 coat protein"
  unit of measurement: "µM"
  apparent KD of MS2 coat protein: 0.0665
- sequence string: "UAAUAUAAGCAAAGAUCCUACAUGAGGAUCACCCAUGUGCUCGUCUUAUAAAGUACUAUCACGAAAGUGAUAGUACA [Mat - Sensor v3 - turn-off var 1 - Eli Mod - D81] (puzzle: Sensor v3, turn-off variant 1)"
  measurement target: "MS2 coat protein"
  unit of measurement: "µM"
  apparent KD of MS2 coat protein: 0.17
- sequence string: "GAUUAUGCGAGCUUUAGGGACAUGAGGAUCACCCAUGUUCGUCUUAUUAAUCUAGGUGCACUAACAUACCUAAAUCU [JMF 32] (puzzle: Sensor v3, turn-off variant 1)"
  measurement target: "MS2 coat protein"
  unit of measurement: "µM"
  apparent KD of MS2 coat protein: 0.0217
